# System: IL-8-induced neutrophil shape change in human whole blood
# assayProcedure: Whole blood neutrophil shape change assay (L)
# Format: cell-based
# studyConditions: Homo sapiens, Neutrophil, IL-8, human whole blood, read-out: Assay L WBSC IC50
Structures can show the parent of a compound that is named as a salt.
valueType: IC50 (nM)

| compound | unitString | IC50 |
| --- | --- | --- |
| Cc1ccc(S(=O)(=O)NC2CC2)cc1-c1cnc(N)c(-n2cncn2)n1 | nM | 1860 |
| Cc1noc(-c2nc(-c3cc(S(=O)(=O)NCCC(C)(C)O)ccc3C)cnc2N)n1 | nM | 1110 |
| Cc1ccc(S(=O)(=O)N[C@H]2CC[C@H](O)CC2)cc1-c1cnc(N)c(-c2cccnc2)n1 | nM | 256 |

[A] Cc1ccc(S(=O)(=O)N[C@H]2CC[C@H](O)CC2)cc1-c1cnc(N)c(-n2cncn2)n1
[B] Cc1ccc(S(=O)(=O)NC[C@H]2COCCN2)cc1-c1cnc(N)c(-c2cn(C)nc2C)n1
[C] CC(C)(O)CNS(=O)(=O)c1cccc(-c2cnc(N)c(-n3cncn3)n2)c1
Sort (3 compounds) by IC50: min first. Give the labels in the order specified.
A, B, C
(A: 166 nM, B: 826 nM, C: 85100 nM)

[1] Cc1cc(-c2nc(-c3cc(S(=O)(=O)NC4CCC(CO)CC4)ccc3C)cnc2N)ccn1 (stereo not shown)
[2] Cc1ccc(-c2nc(-c3cc(S(=O)(=O)NCCC(C)(C)O)ccc3C)cnc2N)s1
Which record would sort first by descending IC50, 1 or 2 ? Refer to your chosen entry by its label in the reply.
2
(2: 7080 nM, 1: 721 nM)

[1] Cc1ccc(S(=O)(=O)NCCC(C)(C)O)cc1-c1cnc(N)c(-c2cnn(C)n2)n1
[2] Cc1ccc(S(=O)(=O)N2CCCC(F)(F)C2)cc1-c1cnc(N)c(-n2cncn2)n1
[3] Cc1ccc(S(=O)(=O)NCC(C)(C)O)cc1-c1cnc(N)c(-n2cnc(CN(C)C)n2)n1 [Example 117, hydrochloride salt]
Sort (3 compounds) by IC50: min first. Give the labels in the order specified.
1, 3, 2
(1: 497 nM, 3: 727 nM, 2: 2470 nM)

----------
# Test system: IL-8-induced neutrophil shape change in human whole blood
# assayProcedure: Whole blood neutrophil shape change assay (L)
# Assay type: cell-based
# studyConditions: Homo sapiens, Neutrophil, IL-8, human whole blood, read-out: Assay L WBSC IC50
valueType: IC50 (nM)

Solved cases (6 shown):
| moleculeSmiles | IC50 (nM) |
| --- | --- |
| Cc1ccc(S(=O)(=O)NCC(F)(F)F)cc1-c1cnc(N)c(-n2cncn2)n1 | 1500 |
| Cc1ccc(S(=O)(=O)NCCC(C)(C)O)cc1-c1cnc(N)c(-c2cnn(C)c2)n1 | 1240 |
| CCn1ncc(-c2nc(-c3cc(S(=O)(=O)NCC(C)(C)O)ccc3C)cnc2N)n1 | 825 |
| Cc1ccc(S(=O)(=O)NC[C@H]2C[C@@H](O)C2)cc1-c1cnc(N)c(-n2cncn2)n1 | 723 |
| Cc1ccc(S(=O)(=O)N[C@H]2CC[C@H](O)CC2)cc1-c1cnc(N)c(-n2cccn2)n1 | 515 |
| Cc1cc(-c2nc(-c3cc(S(=O)(=O)N[C@H]4CC[C@H](O)CC4)ccc3C)cnc2N)ccn1 | 359 |

[A] Cc1cc(-c2nc(-c3cc(S(=O)(=O)NCCC(C)(C)O)ccc3C)cnc2N)ccn1
[B] Cc1cc(C)n(-c2nc(-c3cc(S(=O)(=O)NCC(C)(C)O)ccc3C)cnc2N)n1
Please indicate which entry, A or B , has the lower recorded IC50 value. Refer to your chosen entry by its label in the reply.
A
(A: 963 nM, B: 1530 nM)
